Values from patent US20220024981A1

Molecular target: T1, Human PCSK9 Alexa Fluor 647 (human, UniProt Q8NBP7 31-692, limits assumed, Alexa Fluor 647 label (site not stated))
T1 construct: Labelled tracer of the TR-FRET assay, 16 nM stock; also called proprotein convertase subtilisin/kexin type 9
T1 sequence (Q8NBP7 31-692 limits assumed): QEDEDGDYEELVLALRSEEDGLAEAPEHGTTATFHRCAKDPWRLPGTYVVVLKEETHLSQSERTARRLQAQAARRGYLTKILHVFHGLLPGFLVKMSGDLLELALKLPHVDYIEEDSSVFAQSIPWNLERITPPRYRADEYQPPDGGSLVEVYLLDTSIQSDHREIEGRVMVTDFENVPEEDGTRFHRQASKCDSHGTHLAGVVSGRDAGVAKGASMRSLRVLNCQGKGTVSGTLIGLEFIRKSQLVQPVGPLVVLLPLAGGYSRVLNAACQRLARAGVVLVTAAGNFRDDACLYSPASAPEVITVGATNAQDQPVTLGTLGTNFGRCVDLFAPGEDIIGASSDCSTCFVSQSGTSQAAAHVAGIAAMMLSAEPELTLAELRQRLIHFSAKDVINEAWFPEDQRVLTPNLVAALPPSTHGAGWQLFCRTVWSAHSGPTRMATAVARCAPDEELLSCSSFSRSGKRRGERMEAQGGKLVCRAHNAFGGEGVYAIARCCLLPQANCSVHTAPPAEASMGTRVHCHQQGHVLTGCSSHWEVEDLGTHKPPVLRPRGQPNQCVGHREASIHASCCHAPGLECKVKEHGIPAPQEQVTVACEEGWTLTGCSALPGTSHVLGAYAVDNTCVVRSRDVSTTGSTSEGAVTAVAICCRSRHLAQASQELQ
Test: TR-FRET competition: PCSK9-Alexa Fluor 647 vs LDLR ECD-Eu kryptate
Bridge positions count the residues as written; N and C are the ends. Square brackets hold non-standard residues; d marks the D form. Bip = N[C@@H](Cc1ccc(-c2ccccc2)cc1)C(=O)O; NMeF = CN[C@@H](Cc1ccccc1)C(=O)O; NMeE = CN[C@@H](CCC(=O)O)C(=O)O; NMeA = CN[C@@H](C)C(=O)O
I'd appreciate it if you could supply Maximum % inhibition values for the items below.
# number only, unit % dropped from output

Request: Quick one: Maximum % inhibition of {CH2CO}-FVDTTS[NMeF][Bip][NMeA]NSPCG-NH2 (thioether N-13; SMILES CC(C)[C@@H]1NC(=O)[C@H](Cc2ccccc2)NC(=O)CSC[C@@H](C(=O)NCC(N)=O)NC(=O)[C@@H]2CCCN2C(=O)[C@H](CO)NC(=O)[C@H](CC(N)=O)NC(=O)[C@H](C)N(C)C(=O)[C@H](Cc2ccc(-c3ccccc3)cc2)NC(=O)[C@H](Cc2ccccc2)N(C)C(=O)[C@H](CO)NC(=O)[C@H]([C@@H](C)O)NC(=O)[C@H]([C@@H](C)O)NC(=O)[C@H](CC(=O)O)NC1=O, also called 1-3; Ex. No. 1-3) [Ac*-F-V-D-T-T-S-(N-Me)F-B-(N-Me)A-N-S-P-C*-G-NH2] ?
Response: 55

Request: Ok, now {CH2CO}-FVNTTF[NMeA][Bip][NMeA][NMeE]APC-NHEt (thioether N-13; SMILES CCNC(=O)[C@@H]1CSCC(=O)N[C@@H](Cc2ccccc2)C(=O)N[C@@H](C(C)C)C(=O)N[C@@H](CC(N)=O)C(=O)N[C@@H]([C@@H](C)O)C(=O)N[C@@H]([C@@H](C)O)C(=O)N[C@@H](Cc2ccccc2)C(=O)N(C)[C@@H](C)C(=O)N[C@@H](Cc2ccc(-c3ccccc3)cc2)C(=O)N(C)[C@@H](C)C(=O)N(C)[C@@H](CCC(=O)O)C(=O)N[C@@H](C)C(=O)N2CCC[C@H]2C(=O)N1, also called 3-1; Ex. No. 3-1) [Ac*-F-V-N-T-T-F-(N-Me)A-B-(N-Me)A-(N-Me)E-A-P-C*-NHEt]
Response: 61
